Where do these numbers come from? They come from the supplement of paper PMC10567573.

B1: ZNF649 (parent)
chain: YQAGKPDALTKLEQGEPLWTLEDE

# Variants of: B1
# experiment.summary: protein stability index of a GFP-peptide fusion (GPS, HEK-293T) (PSI 1-6); higher = more stable;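 also: lentivirally expressed fusions sorted by FACS into six bins by GFP to DsRed ratio, PSI derived from sequencing read proportions per bin multiplied by bin number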
# experimental.conditions: c terminus: a fixed tail appended
property.measured: protein stability index
Number only, no unit.

Dear colleague, I am looking for the recorded protein stability index of the following variant: `K11Y`
3.51

Follow-up item: `K11Q`
4.76

Try this variant too: `E22I`
3.75

Another variant to check: `P6Y`
3.91

Record: `P6S`
4.19

Now consider `E24P` .
4.32

Would you kindly repeat that for `A8Q` ?
4.41

What about `E24C` ?
3.49

Then this variant: `T10S`
4.62

Please answer likewise for `Y1D`
5.21

One more variant: `D7V`
3.28
